Data credit: paper PMC5120310

# SUBJECT_OF_TEST: recombinant human Tie-2 protein (Homo sapiens, UniProt Q02763)
# Construct: purchased Thermo Fisher Scientific Inc. PV3628
# Sequence (Q02763 23-1124): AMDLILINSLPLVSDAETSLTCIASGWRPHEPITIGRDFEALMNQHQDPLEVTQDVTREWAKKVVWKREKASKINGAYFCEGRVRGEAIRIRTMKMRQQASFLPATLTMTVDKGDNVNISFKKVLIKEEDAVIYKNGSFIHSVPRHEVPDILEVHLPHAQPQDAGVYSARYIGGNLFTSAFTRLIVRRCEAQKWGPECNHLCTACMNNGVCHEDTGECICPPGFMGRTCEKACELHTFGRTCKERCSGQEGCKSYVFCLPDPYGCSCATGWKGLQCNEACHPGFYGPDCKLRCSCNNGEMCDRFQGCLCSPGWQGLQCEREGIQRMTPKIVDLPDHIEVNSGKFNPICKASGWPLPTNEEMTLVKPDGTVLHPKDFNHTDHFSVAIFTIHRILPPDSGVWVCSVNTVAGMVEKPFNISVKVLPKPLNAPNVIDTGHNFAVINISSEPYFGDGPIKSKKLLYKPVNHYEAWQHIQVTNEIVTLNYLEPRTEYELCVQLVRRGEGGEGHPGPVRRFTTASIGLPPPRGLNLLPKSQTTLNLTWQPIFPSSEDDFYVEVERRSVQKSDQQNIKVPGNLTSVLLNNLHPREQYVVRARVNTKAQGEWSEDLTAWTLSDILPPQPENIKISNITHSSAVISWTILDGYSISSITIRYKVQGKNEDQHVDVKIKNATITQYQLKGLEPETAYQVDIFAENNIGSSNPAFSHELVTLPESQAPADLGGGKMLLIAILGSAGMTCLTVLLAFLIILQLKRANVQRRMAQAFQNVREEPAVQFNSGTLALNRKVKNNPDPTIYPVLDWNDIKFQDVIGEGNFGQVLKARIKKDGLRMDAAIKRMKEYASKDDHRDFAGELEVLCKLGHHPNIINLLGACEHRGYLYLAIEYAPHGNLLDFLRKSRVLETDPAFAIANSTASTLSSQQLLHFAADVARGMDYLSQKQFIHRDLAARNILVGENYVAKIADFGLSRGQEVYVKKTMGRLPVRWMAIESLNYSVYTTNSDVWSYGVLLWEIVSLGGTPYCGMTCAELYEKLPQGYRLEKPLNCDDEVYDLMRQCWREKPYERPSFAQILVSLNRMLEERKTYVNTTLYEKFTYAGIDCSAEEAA
# METHOD_NOTES: Z′-Lyte FRET enzymatic activity assay of Tie-2 kinase
# Assay type: biochemical
# RUN_PARAMETERS: Z′-Lyte assay, 100 μM ATP, n ≥ 2 per concentration; read-out: IC50 (half-maximal inhibitory concentration), Tie-2 kinase
pIC50: −log10 of the molar value.
TEST_READOUT: pIC50

[
  {
    "COMPOUND": "Cc1ccc2nc(-c3ccc(NC(=S)NC(=O)COc4ccccc4C)cc3)sc2c1",
    "QUANTITATIVE_RESULT": 4.76
  },
  {
    "COMPOUND": "CC1=C(C(=O)Nc2ccc(C)cc2C)C(c2ccc(OCc3ccccc3)cc2)NC(=S)N1 (racemic)",
    "QUANTITATIVE_RESULT": 5.33
  },
  {
    "COMPOUND": "Cc1cccc(C(=O)Nc2ccc(NC(=S)NC(=O)c3ccccc3Cl)cc2)c1",
    "QUANTITATIVE_RESULT": 5.62
  },
  {
    "COMPOUND": "Cc1cc(NC(=S)NC(=O)c2ccc(Cl)c(Cl)c2)ccc1NC(=O)c1ccccc1",
    "QUANTITATIVE_RESULT": 4.55
  },
  {
    "COMPOUND": "NS(=O)(=O)c1ccc(CCNC(=O)c2cc(-c3ccncc3)nc3ccc(Cl)cc23)cc1",
    "QUANTITATIVE_RESULT": 5.10
  }
]

1: COc1ccc(Cl)cc1C(=O)NC(=S)Nc1ccc(NC(=O)c2ccccc2)c(C)c1
2: O=C(NC(=S)Nc1cccc2c(O)cccc12)c1ccc(-c2ccccc2)cc1
1 or 2 : whose pIC50 is greater? Provide the label of your selected option as the answer.
2
(2: 5.76, 1: 4.70)

----------
# SUBJECT_OF_TEST: recombinant human Tie-2 protein (Homo sapiens)
# Construct: purchased Thermo Fisher Scientific Inc. PV3628
# METHOD_NOTES: Z′-Lyte FRET enzymatic activity assay of Tie-2 kinase
# Type: biochemical
# RUN_PARAMETERS: 10 μg/mL preliminary screening, Table S1
TEST_READOUT: Inhibition (%) @10 μg/ml

Please review the entries below; each comes with its answer.
[
  {
    "MOLECULE": "O=C(NN=Cc1ccc(N2N=C(c3ccccc3)CC2c2ccccc2)cc1)c1ccncc1 (racemic)",
    "SUBJECT_OF_TEST": "recombinant human Tie-2 protein (Homo sapiens)",
    "TEST_READOUT": "Inhibition (%) @10 μg/ml",
    "QUANTITATIVE_RESULT": 16.08
  },
  {
    "MOLECULE": "CCOC(=O)CNS(=O)(=O)c1cc(-c2nnc(Nc3cccc(C)c3)c3ccccc23)ccc1C",
    "SUBJECT_OF_TEST": "recombinant human Tie-2 protein (Homo sapiens)",
    "TEST_READOUT": "Inhibition (%) @10 μg/ml",
    "QUANTITATIVE_RESULT": 9.52
  },
  {
    "MOLECULE": "O=C(NCCOc1ccccc1)c1n[nH]c(=O)c2ccccc12",
    "SUBJECT_OF_TEST": "recombinant human Tie-2 protein (Homo sapiens)",
    "TEST_READOUT": "Inhibition (%) @10 μg/ml",
    "QUANTITATIVE_RESULT": 52.94
  },
  {
    "MOLECULE": "O=C(NCCNC(=O)c1cc2ccccc2cc1O)c1cc2ccccc2cc1O",
    "SUBJECT_OF_TEST": "recombinant human Tie-2 protein (Homo sapiens)",
    "TEST_READOUT": "Inhibition (%) @10 μg/ml",
    "QUANTITATIVE_RESULT": 9.84
  },
  {
    "MOLECULE": "COc1ccc(-c2nnc(SC(CC(=O)NCc3ccco3)c3ccc(C)cc3)[nH]2)cc1 (stereo not drawn)",
    "SUBJECT_OF_TEST": "recombinant human Tie-2 protein (Homo sapiens)",
    "TEST_READOUT": "Inhibition (%) @10 μg/ml",
    "QUANTITATIVE_RESULT": 65.92
  }
]

I: COCCCN1C(=O)C(O)=C(C(=O)c2ccc(Cl)cc2)C1c1ccc(O)cc1 (stereo not drawn)
II: Cc1ccccc1OCC(=O)OCC(=O)c1ccc(OCc2ccccc2)cc1
III: CCN1C(=O)NC(c2ccc(Cl)cc2)C(C(=O)OCCc2ccccc2)=C1C (racemic)
IV: O=C(CN(Cc1ccc(F)cc1)S(=O)(=O)c1ccc(Cl)cc1)NCc1ccccn1
Which order do these items take when sorted by rising Inhibition (%) @10 μg/ml? List them. Answer format: the labels, in the requested order.
IV, I, II, III

I: CCOc1ccc(CN(CCc2ccc3c(c2)OCO3)Cc2ccc(C(F)(F)F)cc2)cc1
II: c1ccc(-c2nnc(CSc3nnc(-c4ccncc4)[nH]3)o2)cc1
III: CN(CCc1ccccn1)S(=O)(=O)c1ccc2c3c(cccc13)C(=O)N2
IV: COc1cc(C(=O)n2c(SCc3ccc(F)cc3)nc3ccccc32)cc(OC)c1OC
Write the entries in order, lowest recorded Inhibition (%) @10 μg/ml first. Use the labels to give the ranking in the order requested.
III, IV, II, I

I: O=c1[nH]nc(CCc2n[nH]c(=O)c3ccccc23)c2ccccc12
II: CCOc1cc(C2C(C(=O)OCCc3ccccc3)=C(C)NC3=C2C(=O)CCC3)ccc1O (stereo not drawn)
Which value of Inhibition (%) @10 μg/ml is greater, the one for I or the one for II ? Respond using the label that marks the chosen record.
II

a: COc1cccc(OC)c1C(=O)NC(=S)Nc1ccc(NC(=O)c2ccco2)c(Cl)c1
b: Cc1ccc(-c2cc(C(=O)OCC(=O)c3ccccc3)c3cccc(C)c3n2)cc1
Of the two listed items, a and b , which carries the larger Inhibition (%) @10 μg/ml figure? Pick one; state its label.
a
(a: 49.58%, b: 28.98%)
